# System: SK-LMS-1
# method notes: relative viability vs DMSO control (72 h) (fraction); higher = more viable cells
# experimental conditions: 0.00152 µM
Strictly below 1 in relative viability: Criterion met. Otherwise: Criterion not met.

IN: Below 1 on relative viability? Entry "O=C(Nc1cnn2ccc(N3CCC[C@@H]3c3cc(F)ccc3F)nc12)N1CC[C@H](O)C1"
OUT: Criterion not met

IN: Below 1 on relative viability? Entry "Cc1cc(C)c(/C=C2\C(=O)Nc3ccccc32)[nH]1"
OUT: Criterion met

IN: Below 1 on relative viability? Entry "CCc1cc2c(cc1N1CCC(N3CCOCC3)CC1)C(C)(C)c1[nH]c3cc(C#N)ccc3c1C2=O"
OUT: Criterion not met

IN: Below 1 on relative viability? Entry "Cc1ccc(NC(=O)c2ccc(CN3CCN(C)CC3)cc2)cc1Nc1nc(-c2cccnc2)cs1"
OUT: Criterion not met

IN: Below 1 on relative viability? Entry "COc1c(OCCCN2CCOCC2)ccc2c1N=C(NC(=O)c1cnc(N)nc1)N1CCN=C21"
OUT: Criterion met

IN: Below 1 on relative viability? Entry CC(C)NC(=O)C1CCC(n2c(NC(=O)c3ccc(F)cc3)nc3ccc(CN4CCC(C(C)(C)O)CC4)cc32)CC1 (stereo not drawn)
OUT: Criterion not met

====

# System: SK-ES-1
# method notes: relative viability vs DMSO control (72 h) (fraction); higher = more viable cells
# experimental conditions: 0.3704 µM
Counter-ions that a name gives are not always drawn.
Would you kindly list relative viability for each of these compounds?
In your answer, state the number alone without any accompanying words.

IN: What measured relative viability is associated with Cc1nc(NC(=O)N2CCC[C@H]2C(N)=O)sc1-c1ccnc(C(C)(C)C(F)(F)F)c1 [Alpelisib] on SK-ES-1?
OUT: 0.675

IN: What measured relative viability is associated with C[C@@H]1CCN(C(=O)CC#N)C[C@@H]1N(C)c1ncnc2[nH]ccc12 [Tofacitinib] on SK-ES-1?
OUT: 1.01

IN: What measured relative viability is associated with Cc1cnc(Nc2ccc(OCCN3CCCC3)cc2)nc1Nc1cccc(S(=O)(=O)NC(C)(C)C)c1 [Fedratinib] on SK-ES-1?
OUT: 0.489

IN: What measured relative viability is associated with Cc1cc(Nc2ncnc3ccc(NC4=NC(C)(C)CO4)cc23)ccc1Oc1ccn2ncnc2c1 [Tucatinib] on SK-ES-1?
OUT: 1.06

IN: What measured relative viability is associated with CCCS(=O)(=O)Nc1ccc(F)c(C(=O)c2c[nH]c3ncc(-c4ccc(Cl)cc4)cc23)c1F [Vemurafenib] on SK-ES-1?
OUT: 1.1

IN: What measured relative viability is associated with COc1cccc2c1C(=O)c1c(O)c3c(c(O)c1C2=O)C[C@@](O)(C(=O)CO)C[C@@H]3O[C@H]1C[C@H](N)[C@H](O)[C@H](C)O1 [Doxorubicin Hydrochloride] on SK-ES-1?
OUT: 0.0254

IN: What measured relative viability is associated with CC(C)N1CCN(Cc2cnc(-c3cc(-c4cccc5[nH]ccc45)cc4[nH]ncc34)o2)CC1 [Nemiralisib] on SK-ES-1?
OUT: 0.961

IN: What measured relative viability is associated with CNC(=O)c1cc(Oc2ccc(NC(=O)Nc3ccc(Cl)c(C(F)(F)F)c3)c(F)c2)ccn1 [Regorafenib] on SK-ES-1?
OUT: 1.05

IN: What measured relative viability is associated with C[C@]1(O)C[C@@H](c2nc(-c3ccc4ccc(-c5ccccc5)nc4c3)c3c(N)nccn32)C1 [Linsitinib] on SK-ES-1?
OUT: 0.479

IN: What measured relative viability is associated with Cn1cc(-c2cc3c(N4CCN(c5ncc([C@@](C)(N)c6ccc(F)cc6)cn5)CC4)ncnn3c2)cn1 [Avapritinib] on SK-ES-1?
OUT: 0.975

IN: What measured relative viability is associated with CN1CCN(c2ccc3nc(-c4c(N)c5c(F)cccc5[nH]c4=O)[nH]c3c2)CC1 [Dovitinib] on SK-ES-1?
OUT: 0.676

Taken from the supplement of paper PMC10883282.
